- STUDY_TARGET: Glucose transporter (Leishmania mexicana)
- ASSAY_EXPLANATION: ST_JUDE_LEISH: Cytotoxicity at 2uM final concentration against transgenic Leishmania Mexicana promastigotes LmGT2 that are glucose transport deficient and complemented with the L. Mexicana glucose transporter 2. Activity is measured by DNA content using SYBR green in vitro
- Format: functional
QUANTITY: inhibition (%)

# COMPOUND, EXPERIMENTAL_VALUE
data = [
    ("COc1ccc2nccc([C@@H](O)CNCCCN(C)CCOc3cc(F)cc(F)c3)c2c1", 6.99),
    ("CC(=O)N[C@H](C(=O)Nc1ccc(-c2cccc(-c3nc4cccc(C)c4[nH]3)c2)cc1)C(C)C", 2.45),
    ("CN(Cc1ccc(-c2ccc(C(F)(F)F)cc2)cc1)C(=O)Cn1c(CCc2cccc(F)c2F)nc(=O)c2ccc(N3CCN(CCN4CCCCC4)CC3)nc21", 3.71),
    ("CC(C)CNCc1ccc(-c2ccccc2CNC2CCN(Cc3ccccc3)CC2)cc1", 5.95),
    ("CN(c1ccc(C(=O)N[C@@H](CCC(=O)O)C(=O)O)cc1)S(=O)(=O)c1ccc2nc(N)[nH]c(=O)c2c1", 0.27),
    ("CCN(CC)CCCN(C(=O)Nc1c(Cl)cncc1Cl)c1nc(-c2ccc(F)cc2)cs1", 3.83),
    ("CCCCCCNC(=O)C1Cc2c([nH]c3ccc(C)cc23)C2(CCN(CCc3ccccc3)CC2)N1 (stereo not drawn)", 3.44),
    ("Fc1ccc2[nH]c(-c3cccc(-c4ccc(CN5CCN(c6cnccn6)CC5)cc4)c3)nc2c1", 8.14),
]

====

- STUDY_TARGET: Solute carrier family 2, facilitated glucose transporter member 1 (Homo sapiens) (UniProt P11166)
- Sequence (P11166 whole entry): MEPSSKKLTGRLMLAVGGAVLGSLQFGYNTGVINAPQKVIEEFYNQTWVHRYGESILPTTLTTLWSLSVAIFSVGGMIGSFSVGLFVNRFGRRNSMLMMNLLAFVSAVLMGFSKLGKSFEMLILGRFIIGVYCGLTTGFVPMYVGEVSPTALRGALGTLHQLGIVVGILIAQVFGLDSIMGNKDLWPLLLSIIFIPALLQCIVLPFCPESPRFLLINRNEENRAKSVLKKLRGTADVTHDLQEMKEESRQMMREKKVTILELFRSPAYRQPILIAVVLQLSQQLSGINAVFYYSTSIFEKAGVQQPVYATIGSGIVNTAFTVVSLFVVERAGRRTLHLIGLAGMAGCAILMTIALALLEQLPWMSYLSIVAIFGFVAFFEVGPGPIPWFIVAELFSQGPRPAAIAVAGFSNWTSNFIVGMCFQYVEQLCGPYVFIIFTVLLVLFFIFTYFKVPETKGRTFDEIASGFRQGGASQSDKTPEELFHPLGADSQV
- ASSAY_EXPLANATION: ST_JUDE_LEISH: Cytotoxicity at 2uM final concentration against transgenic Leishmania Mexicana promastigotes LmGLUT1 that are glucose transport deficient and complemented with the human glucose transporter GLUT1. Activity is measured by DNA content using SYBR green in vitro
- Type: functional
Reported inhibition values follow for various compounds
QUANTITY: inhibition (%)

# COMPOUND, EXPERIMENTAL_VALUE
records = [
    ("COc1cccc2c(NN=Cc3cccc(F)c3)ccnc12", 3.44),
    ("FC(F)(F)c1ccc2nccc(NCc3ccccc3)c2c1", 6.8),
    ("Oc1cc(Nc2ccnc3cc(I)ccc23)ccc1F", 1.98),
    ("OC(CNCCc1ccccc1)Cn1c2ccc(Cl)cc2c2cc(Cl)ccc21 (stereo not given)", -1.53),
    ("COc1cccc(C23NC(=Nc4nc5ccccc5[nH]4)NC2(c2cccc(OC)c2)NC(=Nc2nc4ccccc4[nH]2)N3)c1 (stereo not given)", 6.07),
    ("COc1ccc2nccc([C@@H](O)CN3CCC(NC(=O)C(c4cc5ccccc5s4)N4CCN(c5ccccc5OC)CC4)CC3)c2c1 (stereo not given in full)", 1.84),
    ("Fc1cc(Cl)ccc1Nc1ccnc2cc(-c3ccc(CN4CCSCC4)o3)ccc12", 1.72),
    ("Cc1cc(N2CCN(C(=O)OC(C)(C)C)CC2)ccc1N", 6.77),
    ("COc1ccc(N2CCN(CCCCNC(=O)c3ccc(NC(=O)c4ccc(Cl)cc4)cc3)CC2)c(OC)c1", 9.13),
    ("C(=Cc1nc2ccccc2s1)c1ccc2c(c1)OCCO2", 0.08),
]
